target: TTERecF (Caldanaerobacter subterraneus, UniProt Q8RDL3, K36A); construct: 42 kDa monomer, 84 kDa dimer with ATP or ATPγS; test: isothermal titration calorimetry
Sequence (Q8RDL3 whole entry K36A): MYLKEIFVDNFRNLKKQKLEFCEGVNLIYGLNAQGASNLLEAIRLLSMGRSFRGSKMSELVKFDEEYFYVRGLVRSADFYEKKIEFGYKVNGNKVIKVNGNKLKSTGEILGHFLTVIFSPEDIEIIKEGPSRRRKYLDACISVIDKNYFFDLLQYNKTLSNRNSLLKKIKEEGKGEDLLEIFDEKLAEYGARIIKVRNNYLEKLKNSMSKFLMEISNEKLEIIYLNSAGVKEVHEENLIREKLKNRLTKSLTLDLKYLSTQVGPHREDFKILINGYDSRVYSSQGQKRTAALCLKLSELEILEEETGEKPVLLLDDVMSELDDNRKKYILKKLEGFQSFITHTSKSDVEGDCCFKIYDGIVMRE
Measurement name: Kd (µM)
Quick reminder: number only, in µM, skip the unit.

Prompt line: Tell me the measured Kd of Nc1ncnc2c1ncn2[C@@H]1O[C@H](COP(=O)(O)OP(=O)(O)OP(=O)(O)O)[C@@H](O)[C@H]1O , please.
Response line: 38

====

target: TTERecF (Caldanaerobacter subterraneus); construct: 42 kDa monomer, 84 kDa dimer with ATP or ATPγS; assay: isothermal titration calorimetry
Measurement name: Kd (µM)
Quick reminder: number only, in µM, skip the unit.

{"Query smiles": "Nc1ncnc2c1ncn2[C@@H]1O[C@H](COP(=O)(O)OP(=O)(O)OP(=O)(O)O)[C@@H](O)[C@H]1O", "Unit tag": "µM", "Assay value": 1.3}

For the next question, use this compound.
Prompt line: Tell me the measured Kd of Nc1ncnc2c1ncn2[C@@H]1O[C@H](CO[P@](=O)(O)O[P@](=O)(O)O[P@@](=O)(O)S)[C@@H](O)[C@H]1O , please.
Response line: 32

====

molecular target: TTERecF (Caldanaerobacter subterraneus, UniProt Q8RDL3, S37A); construct: 42 kDa monomer, 84 kDa dimer with ATP or ATPγS; assay: isothermal titration calorimetry
Sequence (Q8RDL3 whole entry S37A): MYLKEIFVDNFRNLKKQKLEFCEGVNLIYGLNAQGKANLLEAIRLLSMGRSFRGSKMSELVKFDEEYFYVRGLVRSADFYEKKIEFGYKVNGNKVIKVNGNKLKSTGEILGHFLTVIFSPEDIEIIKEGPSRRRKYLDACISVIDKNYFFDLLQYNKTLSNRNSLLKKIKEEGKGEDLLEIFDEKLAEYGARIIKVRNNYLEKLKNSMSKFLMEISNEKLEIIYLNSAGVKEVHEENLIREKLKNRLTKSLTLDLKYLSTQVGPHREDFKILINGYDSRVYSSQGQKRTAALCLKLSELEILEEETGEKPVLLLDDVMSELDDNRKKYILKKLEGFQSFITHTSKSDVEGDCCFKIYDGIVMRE
Measurement name: pKd
Entry type: numeric. Quantity: pKd, the -log10 of concentration in molar units.

Prompt line: Tell me the measured pKd of Nc1ncnc2c1ncn2[C@@H]1O[C@H](COP(=O)(O)OP(=O)(O)OP(=O)(O)O)[C@@H](O)[C@H]1O , please.
Response line: 4.57
